Biological target: AMPA
Experiment: PDSP radioligand binding, AMPA
pKi: −log10 of the molar value.
Quantity Measured: pKi

### Prompt What is its pKi for AMPA? Entry: OCCCN1CCCC2CC1c1cc(-c3ccc(C(F)(F)F)cc3)ccc12 (racemic)
### Response < 5.00

----------
Target: NET (Homo sapiens)
Sequence (P23975 whole entry): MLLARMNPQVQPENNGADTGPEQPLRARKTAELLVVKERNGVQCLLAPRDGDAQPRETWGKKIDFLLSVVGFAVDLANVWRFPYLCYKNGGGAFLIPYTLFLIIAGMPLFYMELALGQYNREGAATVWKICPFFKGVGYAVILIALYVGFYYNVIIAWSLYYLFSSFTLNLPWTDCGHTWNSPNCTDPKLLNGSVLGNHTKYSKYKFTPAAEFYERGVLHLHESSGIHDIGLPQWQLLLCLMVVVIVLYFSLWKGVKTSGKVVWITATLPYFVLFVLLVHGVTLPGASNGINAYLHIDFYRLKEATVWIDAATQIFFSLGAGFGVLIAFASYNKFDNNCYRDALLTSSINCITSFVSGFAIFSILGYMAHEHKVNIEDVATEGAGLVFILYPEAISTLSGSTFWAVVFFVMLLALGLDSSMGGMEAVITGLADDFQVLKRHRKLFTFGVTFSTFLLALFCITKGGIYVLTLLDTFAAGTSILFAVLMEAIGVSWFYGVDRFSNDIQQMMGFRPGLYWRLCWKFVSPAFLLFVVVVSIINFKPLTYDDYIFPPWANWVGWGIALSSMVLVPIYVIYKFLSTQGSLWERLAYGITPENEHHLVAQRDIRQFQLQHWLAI
Quantity Measured: Ki (nM)
Answers are plain numbers, in nM.

### Prompt Return reported Ki; argument: OCCCN1CCCC2CC1c1cc(-c3ccc(C(F)(F)F)cc3)ccc12 (racemic)
### Response 1050

----------
Target: V1B (Homo sapiens, UniProt P47901)
Sequence (P47901 whole entry): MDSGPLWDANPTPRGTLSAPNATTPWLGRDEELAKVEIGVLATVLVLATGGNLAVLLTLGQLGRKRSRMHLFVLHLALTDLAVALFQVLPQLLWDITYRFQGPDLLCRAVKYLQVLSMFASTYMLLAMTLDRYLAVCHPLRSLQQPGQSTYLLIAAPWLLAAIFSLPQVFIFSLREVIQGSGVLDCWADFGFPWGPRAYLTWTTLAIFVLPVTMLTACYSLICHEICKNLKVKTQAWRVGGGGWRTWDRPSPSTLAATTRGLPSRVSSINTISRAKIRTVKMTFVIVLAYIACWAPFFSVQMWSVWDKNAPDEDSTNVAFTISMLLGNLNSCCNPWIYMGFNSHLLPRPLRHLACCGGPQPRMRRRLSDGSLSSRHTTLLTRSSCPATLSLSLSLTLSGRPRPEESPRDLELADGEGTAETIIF
pKi: −log10 of the molar value.
Quantity Measured: pKi

### Prompt Return reported pKi; argument: OCCCN1CCCC2CC1c1cc(-c3ccc(C(F)(F)F)cc3)ccc12 (racemic) [UKH-1114]
### Response < 5.00

----------
Target: V1A (Homo sapiens, UniProt P37288)
Sequence (P37288 whole entry): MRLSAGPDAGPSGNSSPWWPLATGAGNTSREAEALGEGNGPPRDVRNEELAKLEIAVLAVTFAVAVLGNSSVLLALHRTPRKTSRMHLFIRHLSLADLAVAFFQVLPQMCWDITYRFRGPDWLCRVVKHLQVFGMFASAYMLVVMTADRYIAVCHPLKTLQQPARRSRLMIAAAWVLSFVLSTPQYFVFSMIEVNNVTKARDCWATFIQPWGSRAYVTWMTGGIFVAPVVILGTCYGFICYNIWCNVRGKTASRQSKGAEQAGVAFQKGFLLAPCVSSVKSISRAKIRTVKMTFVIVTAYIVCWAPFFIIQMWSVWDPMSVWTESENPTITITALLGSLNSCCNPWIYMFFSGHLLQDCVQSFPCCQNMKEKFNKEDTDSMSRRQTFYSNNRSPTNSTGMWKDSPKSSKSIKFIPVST
pKi: −log10 of the molar value.
Quantity Measured: pKi

### Prompt Return reported pKi; argument: OCCCN1CCCC2CC1c1cc(-c3ccc(C(F)(F)F)cc3)ccc12 (racemic)
### Response < 5.00

----------
Target: KOR (Homo sapiens, UniProt P41145)
Sequence (P41145 whole entry): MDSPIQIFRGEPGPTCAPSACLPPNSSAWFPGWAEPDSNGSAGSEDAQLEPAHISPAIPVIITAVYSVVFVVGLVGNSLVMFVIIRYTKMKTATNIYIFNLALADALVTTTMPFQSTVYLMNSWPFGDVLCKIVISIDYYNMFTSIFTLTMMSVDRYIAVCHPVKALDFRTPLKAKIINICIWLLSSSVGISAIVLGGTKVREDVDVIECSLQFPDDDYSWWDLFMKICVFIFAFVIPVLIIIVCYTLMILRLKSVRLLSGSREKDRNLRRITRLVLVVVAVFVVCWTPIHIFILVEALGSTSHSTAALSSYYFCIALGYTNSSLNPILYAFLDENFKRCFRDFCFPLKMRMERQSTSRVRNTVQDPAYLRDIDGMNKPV
Quantity Measured: Ki (nM)
Give bare numbers, in nM.

### Prompt What is its Ki for KOR (Homo sapiens, UniProt P41145)? Entry: OCCCN1CCCC2CC1c1cc(-c3ccc(C(F)(F)F)cc3)ccc12 (racemic)
### Response 1380

----------
Molecular target: NMDA
Assay: PDSP radioligand binding, NMDA
Quantity Measured: Ki (µM)
One number for each entry, in µM.

### Prompt What is its Ki for NMDA? Entry: OCCCN1CCCC2CC1c1cc(-c3ccc(C(F)(F)F)cc3)ccc12 (racemic)
### Response 6.72

----------
Target: calcium channel
Assay: PDSP radioligand binding, calcium channel
Quantity Measured: Ki

### Prompt Return reported Ki; argument: OCCCN1CCCC2CC1c1cc(-c3ccc(C(F)(F)F)cc3)ccc12 (racemic)
### Response > 10 µM

----------
Target: V2 (Homo sapiens)
Sequence (P30518 whole entry): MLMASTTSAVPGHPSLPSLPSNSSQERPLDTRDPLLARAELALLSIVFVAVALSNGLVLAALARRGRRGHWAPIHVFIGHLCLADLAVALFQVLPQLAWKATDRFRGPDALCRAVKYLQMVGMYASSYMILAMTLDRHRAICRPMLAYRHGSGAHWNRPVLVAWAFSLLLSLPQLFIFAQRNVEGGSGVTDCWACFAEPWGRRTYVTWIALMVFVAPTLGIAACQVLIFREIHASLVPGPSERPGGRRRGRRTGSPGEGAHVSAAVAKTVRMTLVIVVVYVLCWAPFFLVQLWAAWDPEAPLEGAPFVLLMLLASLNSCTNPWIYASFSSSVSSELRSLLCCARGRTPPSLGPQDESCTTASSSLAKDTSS
pKi: −log10 of the molar value.
Quantity Measured: pKi

### Prompt Return reported pKi; argument: OCCCN1CCCC2CC1c1cc(-c3ccc(C(F)(F)F)cc3)ccc12 (racemic) [UKH-1114]
### Response < 5.00

----------
Biological target: σ2R/Tmem97 (Rattus norvegicus, UniProt Q5U3Y7)
Sequence (Q5U3Y7 whole entry): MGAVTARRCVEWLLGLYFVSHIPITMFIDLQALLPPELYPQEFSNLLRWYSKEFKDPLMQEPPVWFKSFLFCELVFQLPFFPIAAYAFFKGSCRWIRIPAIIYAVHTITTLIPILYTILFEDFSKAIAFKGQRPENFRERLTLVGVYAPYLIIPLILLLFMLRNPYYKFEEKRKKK
Assay: Sigma 2 receptor competition binding with [3H]-ditolylguanidine
Settings: σ2R from rat PC12 cells

Molecule: FC(F)(F)c1ccc(-c2ccc3c(c2)C2CC3CCCN2C2CCCC2)cc1 (racemic)
Target Entity: σ2R/Tmem97 (Rattus norvegicus, UniProt Q5U3Y7)
affinity at σ2R/Tmem97 (in words): high affinity
//
Molecule: Clc1ccc2c(c1)C1CC2CCCN1CC1CCCCC1 (racemic)
Target Entity: σ2R/Tmem97 (Rattus norvegicus, UniProt Q5U3Y7)
affinity at σ2R/Tmem97 (in words): low nM range
//
Molecule: OCCCN1CCCC2CC1c1cc(-c3ccc(C(F)(F)F)cc3)ccc12 (racemic)
Target Entity: σ2R/Tmem97 (Rattus norvegicus, UniProt Q5U3Y7)
affinity at σ2R/Tmem97 (in words): high affinity
//
Molecule: c1ccc(CCN2CCC3CC2c2ccccc23)cc1 (racemic)
Target Entity: σ2R/Tmem97 (Rattus norvegicus, UniProt Q5U3Y7)
affinity at σ2R/Tmem97 (in words): low nM range
